Exercise: state measured EC50 for each of the binders provided.
Biological target: T1, recombinant human RANKL (soluble, Gly136-Asp317, N-terminal 10 His, expressed in CHO cells) (human, UniProt O14788 136-317)
T1 construct: residues between secretion signal and His tag are not described; also called hRANKL; hRNAKL
T1 sequence: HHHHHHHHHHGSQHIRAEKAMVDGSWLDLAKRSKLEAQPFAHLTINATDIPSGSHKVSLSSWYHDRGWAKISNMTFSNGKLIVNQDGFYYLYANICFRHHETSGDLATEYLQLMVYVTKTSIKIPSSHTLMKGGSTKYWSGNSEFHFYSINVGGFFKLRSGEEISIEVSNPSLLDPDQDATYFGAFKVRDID
Experiment: ELISA, hRANKL coated 1 µg/ml; concentration at 50% Bmax; Plate#02
Numbers only, in ng/mL.

Example results:
G10 (antibody, human IgG2, kappa, V domains shown, 293F cells) VH: QVQLVQSGAELKKPGASVKLSCKASGYTFTTYWLQWVRQAPGQGLEWMGAIYPGPGNTKYTQKFKDRFTITADTSKSTAYMQLNSLKSEDSAVYYCARRGSRRGIAYWGQGTLVTVSA VL: NIVLTQSPASLSVSLGQRATISCRASESVDSYGRSFMHWYQQRPGQAPRLLIYLASNLESGVPARFSGSGSRTDFTLTISSVEAEDEATYYCQQDNEDPYTFGGGTKLEIKG
2.85
G13 (antibody, human IgG2, kappa, V domains shown, 293F cells) VH: QVQLVQSGAELKKPGASVKLSCKASGYTFTTYWLQWVRQAPGQGLEWMGAIYPGPGNTKYTQKFKDRFTITADTSKSTAYMQLNSLKSEDSAVYYCARRGSRRGIAYWGQGTLVTVSA VL: NIVLTQSPASLSVSLGQRATISCRASESVDSYGRSFMHWYQQKPGQAPKLLIYLASNLESGVPSRFSGSGSRTDFTLTISRVEAEDAATYYCQQDNEDPYTFGGGTKLEIKG
2.34
G9 (antibody, human IgG2, kappa, V domains shown, 293F cells) VH: QVQLVQSGAELVQPGASVKLSCKASGYTFTTYWLQWVRQTPGQGLEWMGAIYPGPGNTKYTQKFKDRVTITADTSTSTAYMQLNSLRSEDSAVYYCARRGSRRGIAYWGQGTLVTVSA VL: NIVLTQSPASLSVSLGQRATISCRASESVDSYGRSFMHWYQQKPGQAPKLLIYLASNLESGVPSRFSGSGSRTDFTLTISRVEAEDAATYYCQQDNEDPYTFGGGTKLEIKG
3.28

Exercise: Fill blank: measured EC50 of the binder G8 (antibody, human IgG2, kappa, V domains shown) VH: QVQLVQSGAELVQPGASVKLSCKASGYTFTTYWLQWVRQTPGQGLEWMGAIYPGPGNTKYTQKFKDRVTITADTSTSTAYMQLNSLRSEDSAVYYCARRGSRRGIAYWGQGTLVTVSA VL: NIVLTQSPASLSVSLGQRATISCRASESVDSYGRSFMHWYQQRPGQAPKLLIYLASNLESGVPARFSGSGSRTDFTLTISSVEAEDEATYYCQQDNEDPYTFGGGTKLEIKG is ____.
Solution: 2.76
